Biological target: mineralocorticoid receptor (MR) (Homo sapiens, UniProt P08235)
Sequence (P08235 whole entry): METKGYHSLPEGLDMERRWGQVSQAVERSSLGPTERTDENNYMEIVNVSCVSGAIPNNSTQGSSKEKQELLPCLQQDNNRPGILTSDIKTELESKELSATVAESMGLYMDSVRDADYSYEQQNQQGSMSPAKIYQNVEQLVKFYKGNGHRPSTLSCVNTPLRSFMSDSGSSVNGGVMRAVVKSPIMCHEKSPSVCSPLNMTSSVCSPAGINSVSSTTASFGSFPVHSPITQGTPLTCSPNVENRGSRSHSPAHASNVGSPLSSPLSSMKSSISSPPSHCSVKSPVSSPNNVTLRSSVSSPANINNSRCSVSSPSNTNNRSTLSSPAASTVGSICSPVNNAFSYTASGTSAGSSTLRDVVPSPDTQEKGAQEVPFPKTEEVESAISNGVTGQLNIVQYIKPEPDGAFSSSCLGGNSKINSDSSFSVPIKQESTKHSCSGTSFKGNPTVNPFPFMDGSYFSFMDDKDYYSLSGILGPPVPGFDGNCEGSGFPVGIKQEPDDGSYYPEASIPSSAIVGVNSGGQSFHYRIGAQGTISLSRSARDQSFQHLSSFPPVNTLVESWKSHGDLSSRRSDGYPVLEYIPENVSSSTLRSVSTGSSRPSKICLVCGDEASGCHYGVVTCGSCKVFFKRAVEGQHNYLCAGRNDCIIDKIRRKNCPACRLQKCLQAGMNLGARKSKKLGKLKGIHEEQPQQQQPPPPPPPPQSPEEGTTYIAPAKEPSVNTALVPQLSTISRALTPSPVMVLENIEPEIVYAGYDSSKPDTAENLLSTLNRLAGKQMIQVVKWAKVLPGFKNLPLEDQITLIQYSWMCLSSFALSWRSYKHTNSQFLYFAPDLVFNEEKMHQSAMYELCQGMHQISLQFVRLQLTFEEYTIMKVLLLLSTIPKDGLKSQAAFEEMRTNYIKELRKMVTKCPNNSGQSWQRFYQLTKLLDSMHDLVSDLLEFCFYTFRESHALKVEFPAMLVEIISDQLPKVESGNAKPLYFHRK
Assay: MR agonist assay, MR-luciferase reporter cells
Type: cell-based
Settings: 24 h incubation; 'in contrast' = unlike LEO 134310, which gave no significant activation

compound: CCCCC(=O)O[C@]1(C(=O)CO)[C@@H](C)C[C@H]2[C@@H]3CCC4=CC(=O)C=C[C@]4(C)[C@@]3(F)[C@@H](O)C[C@@]21C [BMV, Betamethasone Valerate]
Activation of MR (luciferase activity): in contrast

compound: CCC(=O)O[C@]1(C(=O)CCl)[C@@H](C)C[C@H]2[C@@H]3CCC4=CC(=O)C=C[C@]4(C)[C@@]3(F)[C@@H](O)C[C@@]21C [CP, Clobetasol Propionate]
Activation of MR (luciferase activity): in contrast

====

Test system: LPS-induced TNF-alpha release in PBMCs
Assay: TNF-alpha inhibition assay, mouse PBMCs
Assay type: cell-based
Conditions: geometric mean
measurement-type: EC50 (nM)
I only need the number, in nM, no unit after it.

Problem: Specify EC50 for `C[C@H](NC(=O)[C@H]1CCCO1)[C@H](Oc1ccc(C(=O)O[C@H]2CCCN(C(=O)[C@H]3COC(=O)C3)C2)cc1)c1ccc(C2CC2)cc1` and stop.
Result: 0.58
